Consider the following compounds; for each one, report its max response, negative = inhibition.
Target: D(3) dopamine receptor (Homo sapiens)
Experiment: qHTS of D3 Dopamine Receptor Antagonist: qHTS; note: % is set by controls: 0 for no effect and ±100 for the full control effect
Conditions: D3R cells, DiscoveRx beta-arrestin luminescence, antagonist mode; hits give low values
Description: D3 DARs represent a very important target for the treatment of several neuropsychiatric disorders. Indeed, one of the most promising therapeutic applications for the D3 DAR is in the area of addiction and related disorders. […] Freshly passaged cells are plated in 1536 well white, solid bottom plates at a density of 1500 cells/well in 3microl of complete media. […] Following incubation, luminescence is measured on a ViewLux CCD-based luminometer reader using a 20 sec exposure time.
Out of some 360,000 compounds screened, about 9,100 (2.5%) were called active. Inconclusive results (about 4%) are left out. This is one part of a sample in which actives are shown more often than they occur.
One number for each entry, in %.

Cc1cc(C)cc(NC(=S)NC2CC3CCCC(C2)N3Cc2cccs2)c1 (stereo not given) :: -81.8
c1cc2c(cc1C1OCC3C(c4ccc5c(c4)OCO5)OCC13)OCO2 (stereo not given) :: 1.57
COc1cc(C(c2c(O)c3ccccc3oc2=O)c2c(C)n(C)n(-c3ccccc3)c2=O)ccc1O (stereo not given) :: 9.1
CC(=O)NCC1=C(c2ccc3ccccc3c2)C[C@@H]2CC[C@H]1N2Cc1ccco1 :: -16.9
Cc1ccc(-n2c(-c3ccc([N+](=O)[O-])cc3)nc3ccccc3c2=O)cc1 :: 7.83
CCC(=O)OC(Cc1ccccc1)(c1ccccc1)C(C)CN(C)C (stereo not given) :: -66

I would be grateful if you could provide max response, negative = inhibition for each of the following entries.
1. Nc1ccc(C(=O)N/N=C2/CN3CCC2CC3)cc1
2. CC(Cc1ccccc1)NCCC(c1ccccc1)c1ccccc1 (stereo not given)
3. CC(=O)NC(=O)NC(C)Cc1ccccc1 (stereo not given)
4. CN1CCN(C(=O)COc2ccc(C(C)(C)C)cc2Br)CC1
5. O=C(CCN1CCCCC1)NCC(=O)Nc1ccc(Br)cc1C(=O)c1ccccc1
6. c1ccc(N2Cc3ccccc3-n3nncc3C2)nc1
7. Cc1cccc(NC(=O)N2CC3CC(C2)c2cccc(=O)n2C3)c1 (stereo not given)
8. CC(C)c1ccc(OCC(=O)N2CCCN(C)CC2)cc1

1. -6.03
2. -75.4
3. 0
4. 0
5. -29.9
6. -20.4
7. 8.44
8. -7.58
